EXPERIMENTAL SYSTEM: PAK4 kinase activity in whole cells (TR-293-KDG, modified HEK 293) (Homo sapiens, UniProt O96013)
Construct: engineered to overexpress both GEF-H1b and the kinase domain (KD) of PAK4
Sequence (O96013 321-572 limits assumed): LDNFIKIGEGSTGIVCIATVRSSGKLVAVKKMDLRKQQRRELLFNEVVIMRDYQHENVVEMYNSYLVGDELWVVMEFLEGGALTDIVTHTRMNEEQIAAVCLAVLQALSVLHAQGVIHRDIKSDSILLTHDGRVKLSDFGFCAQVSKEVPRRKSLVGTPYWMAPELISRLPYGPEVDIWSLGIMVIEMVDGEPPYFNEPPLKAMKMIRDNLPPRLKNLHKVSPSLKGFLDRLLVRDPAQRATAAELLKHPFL
METHOD SUMMARY: PAK4 cellular assay: sandwich ELISA of PAK4-dependent phosphorylation of GEF-H1b in TR-293-KDG cells
CONDITIONS: 3-hour exposure
# strict inequality: EC50 < 0.2 µM yields YES, everything else yields NO

- COMPOUND: "CNC[C@@H](OC(=O)N1Cc2c(NC(=O)c3ccc(F)cc3)n[nH]c2C1(C)C)c1ccccc1 [Example 121]"
  ASSIGNED CLASS: "YES"
- COMPOUND: "CN(C)C[C@@H](NC(=O)N1Cc2c(NC(=O)c3cccc(Oc4ccccc4)c3)n[nH]c2C1(C)C)c1ccccc1 [Example 96]"
  ASSIGNED CLASS: "YES"
- COMPOUND: "CN(C)C[C@@H](NC(=O)N1Cc2c(NC(=O)c3nc4ccccc4s3)n[nH]c2C1(C)C)c1ccccc1 [Example 104]"
  ASSIGNED CLASS: "YES"
- COMPOUND: "CN(C)C[C@@H](OC(=O)N1Cc2c(NC(=O)c3ccccc3F)n[nH]c2C1(C)C)c1ccccn1 [Example 26]"
  ASSIGNED CLASS: "NO"
- COMPOUND: "CN(C)CC(OC(=O)N1Cc2c(NC(=O)c3ccc(F)cc3)n[nH]c2C1(C)C)c1ccc(C#N)cc1 (stereo not drawn) [Example 95]"
  ASSIGNED CLASS: "YES"
- COMPOUND: "CC(=O)Nc1n[nH]c2c1CN(C(=O)O[C@H](CN(C)C)c1ccccc1)C2(C)C [Example 7]"
  ASSIGNED CLASS: "NO"
- COMPOUND: "CN(C)CC(OC(=O)N1Cc2c(n[nH]c2NC(=O)C2CCCO2)C1(C)C)c1cccc(F)c1 (single isomer, unassigned) [Example 84B]"
  ASSIGNED CLASS: "NO"
- COMPOUND: "CN(C)C[C@@H](OC(=O)N1Cc2c(NC(=O)c3cscn3)n[nH]c2C1(C)C)c1ccccc1 [Example 68]"
  ASSIGNED CLASS: "YES"
- COMPOUND: "CC(C)N(C)C[C@@H](OC(=O)N1Cc2c(NC(=O)c3ccc(F)cc3)n[nH]c2C1(C)C)c1ccccc1 [Example 40]"
  ASSIGNED CLASS: "YES"
- COMPOUND: "CN(C)C[C@@H](OC(=O)N1Cc2c(NC(=O)c3ccc(F)cc3)n[nH]c2C1(C)C)c1ccccc1 [Example 2]"
  ASSIGNED CLASS: "YES"
- COMPOUND: "CN(C)C[C@@H](OC(=O)N1Cc2c(NC(=O)c3ccc(F)cc3F)n[nH]c2C1(C)C)c1ccccc1 [Example 4]"
  ASSIGNED CLASS: "YES"
- COMPOUND: "CN(C)CC(OC(=O)N1Cc2c(NC(=O)c3ccc(F)cc3)n[nH]c2C1(C)C)c1ccccc1F (stereo not drawn) [Example 38]"
  ASSIGNED CLASS: "YES"
- COMPOUND: "CN(C)CC(OC(=O)N1Cc2c(NC(=O)c3ccc(F)cc3)n[nH]c2C1(C)C)c1nccs1 (stereo not drawn) [Example 93]"
  ASSIGNED CLASS: "YES"
- COMPOUND: "CC(C)C[C@@H](CN(C)C)OC(=O)N1Cc2c(NC(=O)c3ccc(C(F)(F)F)cc3)n[nH]c2C1(C)C [Example 79]"
  ASSIGNED CLASS: "NO"
- COMPOUND: "CC1(C)c2[nH]nc(NC(=O)c3ccc(F)cc3)c2CN1C(=O)OC(CN1CCCC1)c1ccccc1 (stereo not drawn) [Example 43]"
  ASSIGNED CLASS: "NO"
